biological target: T1, human activated protein C (APC) (human, UniProt P04070 43-461); test: BLI, VHH captured via anti-V5, APC in solution
T1 construct: Bought (Haematologic Technologies; plasma-derived from Enzyme Research Laboratories); Two-chain disulfide-linked protease
T1 sequence (P04070 other isoform, or with tags, fused parts or gaps): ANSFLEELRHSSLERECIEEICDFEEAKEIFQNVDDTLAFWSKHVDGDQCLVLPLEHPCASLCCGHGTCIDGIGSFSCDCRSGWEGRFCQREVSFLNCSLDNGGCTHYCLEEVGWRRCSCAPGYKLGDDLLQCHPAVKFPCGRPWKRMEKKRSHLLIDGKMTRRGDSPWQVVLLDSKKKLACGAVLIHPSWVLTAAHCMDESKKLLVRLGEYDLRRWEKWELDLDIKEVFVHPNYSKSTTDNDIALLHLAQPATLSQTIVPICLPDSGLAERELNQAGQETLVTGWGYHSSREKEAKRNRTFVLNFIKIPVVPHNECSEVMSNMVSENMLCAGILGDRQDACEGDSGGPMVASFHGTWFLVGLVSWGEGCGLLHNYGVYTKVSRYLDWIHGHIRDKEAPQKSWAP
MEASURED_METRIC: koff (s⁻¹)

| BINDER | MEASURED_METRIC | UNIT_ABBREVIATION | REPORTED |
| --- | --- | --- | --- |
| LP18 (SR16983-R4-P1-A11) (VHH, not shown: small tags and cut ends, Llama VHH purified from E. coli periplasm) VHH: QLQLVESGGGLVQPGGSLRLSCAASGFTFSTKWMYWVRQGPGKGLERVAAIDAGGTSTYYADSVKGRFTISRDNSENTVYLQMNSLESADTAVYYCARSEGGLFRGRGTQVTVSA | koff | s⁻¹ | 0.0011 |
| LP19 (SR16983-R4-P1-B06) (VHH, not shown: small tags and cut ends, Llama VHH purified from E. coli periplasm) VHH: QLQLVESGGGEVQAGESLRLSCAASGSTFSINVFAWYRDYPGKQRELVAVIGRSGTPRYADSVKGRFTISRDNAKNTVYLQMNSLEPEDTAVYYCHLGDTWGQGTQVTVSS | koff | s⁻¹ | 0.0025 |
| LP3 (SR16983-R2-P4-E09) (VHH, not shown: small tags and cut ends, Llama VHH purified from E. coli periplasm) VHH: QVQLVESGGGLVQPGGSLTLSCAASGTIESINDMGWYRQAPGKQRELVAAITSGGSTNYADSVKGRFTISRDNAKNTVYLQMNSLKPEDTAVYYCNAEVKRHYYYDSAGYRYWGQGTQVTVSS | koff | s⁻¹ | 0.0016 |
| LP8 (SR16983-R3-P3-A04) (VHH, not shown: small tags and cut ends, Llama VHH purified from E. coli periplasm) VHH: QLQLVESGGGLVEAGGSLRLSCAASGRTFSSGALGWFRQAPGKEREFVATIRWSDERTQYSEFVKGRFTISRDNAKNTVYLQMNNLQPEDTAVYYCRSTVGNLLYWGQGTQVTVSS | koff | s⁻¹ | 0.0017 |

This collection of values is drawn from patent US20250163183A1.
